assay: growth inhibition of P. falciparum 3D7, dose response, 3D7 strain, red blood cells, SYBR Green, cherry-picked (AID 652047);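 for activity change, negative = inhibition: 0% = untreated neutral control wells and -100% = mefloquine positive control wells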; conditions: P. falciparum 3D7 in RBCs, SYBR Green DNA fluorescence; at 50 µM (top of the series)
readout-label: activity change, negative = inhibition (%)

>>> print(df.to_string())
                                    compound  unit_of_measurement  measured
 0  CCOC(=O)c1ccc(N2C(=O)CC(N3CCC(O)(c4ccc(Cl)cc4)CC3)C2=O)cc1 (stereo unspecified)                    %      7.67
 1            CCCn1c2ccccc2c2cc(C(=O)O)ccc21                    %      17.1
 2                  O=c1c(CO)cc(CO)cc(CO)c1O                    %      -103
 3  CCCn1c(=O)c(C(=O)NCc2ccc(OC)c(OC)c2)c(O)c2ccccc21                    %     -23.6
 4       CCCSC(=S)c1c(C)[nH]n(-c2ccccc2)c1=O                    %     -28.2
 5    Cc1cc(NS(=O)(=O)c2ccc(C3CCCCC3)cc2)no1                    %      27.3
 6  CC(C)NC(=O)NC(=O)COC(=O)c1ccc([N+](=O)[O-])cc1Cl                    %      16.4
 7          c1ccc(-c2ccc(OCCCn3cncn3)cc2)cc1                    %      6.71
 8       COc1cccc(CC(=O)Nc2ccc3nc(C)sc3c2)c1                    %     -2.47
 9  O=C(N/N=C/c1cc(Cl)cc([N+](=O)[O-])c1O)c1ccccc1NS(=O)(=O)c1cccs1                    %      3.85
10             c1ccc(Cn2cc(-c3cccnc3)cn2)cc1                    %     -24.2

====

Each entry below lists one item and its recorded AC35 value.
system: P. falciparum 3D7 in RBCs, SYBR Green DNA fluorescence; assay: growth inhibition of P. falciparum 3D7, dose response, 3D7 strain, red blood cells, SYBR Green, cherry-picked (AID 652047)
readout-label: AC35

                                   molecule                             tested_target  readout_label  measured
0  O=S(=O)(Nc1ccccc1)c1ccc(Oc2ncc(C(F)(F)F)cc2Cl)cc1  P. falciparum 3D7 in RBCs, SYBR Green DNA fluorescence           AC35   28.7 µM
1  CC12CC3(C)CC(C)(C1)CC(NC(=O)N1CCCC1)(C2)C3  P. falciparum 3D7 in RBCs, SYBR Green DNA fluorescence           AC35   22.2 µM
2  COc1ccc(/C=N/Nc2cc(C)nc(-n3nc(C)cc3C)n2)cc1  P. falciparum 3D7 in RBCs, SYBR Green DNA fluorescence           AC35   1.06 µM
3  O=[N+]([O-])c1ccc2c(OCc3nnc(-c4ccccc4Br)o3)ncnc2c1  P. falciparum 3D7 in RBCs, SYBR Green DNA fluorescence           AC35   25.5 µM
4       C=CCc1ccc(O)c(-c2ccc(O)c(CC=C)c2)c1  P. falciparum 3D7 in RBCs, SYBR Green DNA fluorescence           AC35   15.8 µM
5       Fc1ccc(CCNC(=S)Nc2ccc(F)c(Cl)c2)cc1  P. falciparum 3D7 in RBCs, SYBR Green DNA fluorescence           AC35   15.9 µM

Measured values drawn from PubChem BioAssay AID652047 for this set.
